- Type: in vitro ADME
- MEASUREMENT_CONTEXT: extraction ratio, compound at 1 uM, SD rat liver microsomes 0.5 mg/mL
TEST_READOUT: Liver Microsomal Stability (ER) SD rat
Answers are plain numbers.

Solved cases (3 shown):
INSERT INTO assay_data (chemical_string, test_readout, readout_value) VALUES
  ('C=CC(=O)N[C@H](C[C@@H]1CCNC1=O)NC(=O)[C@H](CC(C)C)NC(=O)OCc1ccccc1', 'Liver Microsomal Stability (ER) SD rat', 0.13),
  ('CC(C)C[C@H](NC(=O)c1cc2ccccc2[nH]1)C(=O)N1C[C@H]2[C@@H]([C@H]1C(=O)N[C@H](C=O)C(C)C)C2(C)C', 'Liver Microsomal Stability (ER) SD rat', 0.53),
  ('CC(C)(C)C(=O)N[C@H](C(=O)N1C[C@H]2[C@@H]([C@H]1C(=O)N[C@H](C#N)C[C@@H]1CCNC1=O)C2(C)C)C(C)(C)C', 'Liver Microsomal Stability (ER) SD rat', 0.15);

Please report Liver Microsomal Stability (ER) SD rat for every entry that follows.
1. COc1cccc2[nH]c(C(=O)N[C@@H](CC(C)C)C(=O)N[C@@H](C[C@@H]3CCNC3=O)C(=O)CO)cc12
2. CC(C)C(=O)N[C@H](C(=O)N1C[C@H]2[C@@H]([C@H]1C(=O)N[C@H](C#N)C[C@@H]1CCNC1=O)C2(C)C)C1CC1
3. CC(C)C[C@H](NC(=O)c1cc2ccccc2[nH]1)C(=O)N[C@@H](C[C@@H]1CCNC1=O)C(=O)O
4. Cc1cccc2[nH]c(C(=O)N[C@@H](CC(C)C)C(=O)N[C@H](C=O)C[C@@H]3CCNC3=O)cc12
5. CC(C)C[C@H](NC(=O)c1cc2ccccc2[nH]1)C(=O)N1C[C@H]2[C@@H]([C@H]1C(=O)N[C@H](C#N)C(C)(C)C)C2(C)C

1: 0.11; 2: 0.00; 3: −0.02; 4: 0.06; 5: 0.20

Please report Liver Microsomal Stability (ER) SD rat for every entry that follows.
1. CC(C)C[C@H](NC(=O)c1cc2ccccc2[nH]1)C(=O)N[C@@H](C[C@@H]1CCNC1=O)C(=O)CCl
2. CC(C)C[C@H](NC(=O)c1cc2c(F)cccc2[nH]1)C(=O)N[C@H](C#N)C[C@@H]1CCNC1=O
3. CC1(C)[C@@H]2[C@@H](C(=O)N[C@H](C#N)C[C@@H]3CCNC3=O)N(C(=O)[C@@H](NC(=O)C(F)F)C3CC3)C[C@@H]21
4. C[C@@H](C=O)NC(=O)[C@@H]1[C@@H]2[C@H](CN1C(=O)[C@@H](NC(=O)C(F)(F)F)C1CC1)C2(C)C

1. 0.77
2. 0.21
3. 0.05
4. 0.02

Please report Liver Microsomal Stability (ER) SD rat for every entry that follows.
1. CC(C)C[C@H](NC(=O)C(C)(C)C)C(=O)N1C[C@H]2[C@@H]([C@H]1C(=O)N[C@H](C#N)C[C@@H]1CCNC1=O)C2(C)C
2. CC(C)(C)[C@H](NC(=O)C(F)(F)F)C(=O)N[C@@H](CC1CCCCC1)C(=O)N[C@H](C#N)C[C@@H]1CCNC1=O
3. CC(C)C[C@H](NC(=O)C1CC1)C(=O)N1C[C@H]2[C@@H]([C@H]1C(=O)N[C@H](C#N)C[C@@H]1CCNC1=O)C2(C)C
4. CC(C)C[C@H](NC(=O)c1cc2ccccc2[nH]1)C(=O)N1C[C@H]2[C@@H]([C@H]1C(=O)N[C@@H](C#N)C[C@@H]1CCNC1=O)C2(C)C
5. Cc1cccc2[nH]c(C(=O)N[C@@H](CC(C)C)C(=O)N[C@@H](C[C@@H]3CCNC3=O)C(=O)CCl)cc12
6. CC(C)C[C@H](NC(=O)c1cc2c(F)cccc2[nH]1)C(=O)N[C@@H](C[C@@H]1CCNC1=O)C(=O)CO

0.09
0.29
0.04
0.30
0.70
0.17

Please report Liver Microsomal Stability (ER) SD rat for every entry that follows.
1. CC(C)(C)[C@H](NC(=O)C(F)(F)F)C(=O)N1C[C@H]2[C@@H]([C@H]1C(=O)N[C@H](C=O)C[C@@H]1CCNC1=O)C2(C)C
2. C=CC(=O)N[C@H](C[C@@H]1CCNC1=O)NC(=O)[C@@H]1[C@@H]2[C@H](CN1C(=O)[C@@H](NC(=O)C(F)(F)F)C(C)(C)C)C2(C)C
3. CC(C)C[C@@H](NC(=O)c1cc2c(F)cccc2[nH]1)C(=O)N[C@H](C#N)C[C@@H]1CCNC1=O
4. CC(C)(C)[C@H](NC(=O)C(F)(F)F)C(=O)N1C[C@H]2[C@@H]([C@H]1C(=O)N[C@H](C#N)C[C@@H]1CCCNC1=O)C2(C)C
5. CC(C)(C)[C@H](NC(=O)C(F)(F)F)C(=O)N1C[C@H]2[C@@H]([C@H]1C(=O)N[C@@H](C[C@@H]1CCNC1=O)C(=O)CO)C2(C)C
6. CC1(C)[C@@H]2[C@@H](C(=O)N[C@H](C#N)C[C@@H]3CCNC3=O)N(C(=O)[C@@H](NC(=O)C(F)(F)F)C3CC3)C[C@@H]21

1. −0.02
2. 0.04
3. 0.37
4. 0.09
5. 0.04
6. 0.03
